- TEST SUMMARY: PK of compound of Formula (Ia) after single subcutaneous dose of solution formulations in Wistar Han rats
- Type: in vivo
- TEST CONDITIONS: male, Wistar Han, rat, plasma, sc, 50 mg/kg, male Wistar Han rats, single SC 50 mg/kg, 500 mg/mL solution X (5.00% ethanol, 1.91% poloxamer 188), mean ± SD, n = 3; read-out: AUC0-3696 h
ENDPOINT: AUC(0-t) (µM·h)

COMPOUND: CC(C)(C#Cc1ccc(-c2ccc(Cl)c3c(NS(C)(=O)=O)nn(CC(F)(F)F)c23)c([C@H](Cc2cc(F)cc(F)c2)NC(=O)Cn2nc(C(F)(F)F)c3c2C(F)(F)[C@@H]2C[C@H]32)n1)S(C)(=O)=O [compound of Formula (Ia)]
VALUE MEASURED: 761
